- TARGET ENTITY: T1, CAPRIN-1 protein expressed on the membrane surface of human cancer cells (human, UniProt Q14444 2-709)
- T1 sequence (looked up): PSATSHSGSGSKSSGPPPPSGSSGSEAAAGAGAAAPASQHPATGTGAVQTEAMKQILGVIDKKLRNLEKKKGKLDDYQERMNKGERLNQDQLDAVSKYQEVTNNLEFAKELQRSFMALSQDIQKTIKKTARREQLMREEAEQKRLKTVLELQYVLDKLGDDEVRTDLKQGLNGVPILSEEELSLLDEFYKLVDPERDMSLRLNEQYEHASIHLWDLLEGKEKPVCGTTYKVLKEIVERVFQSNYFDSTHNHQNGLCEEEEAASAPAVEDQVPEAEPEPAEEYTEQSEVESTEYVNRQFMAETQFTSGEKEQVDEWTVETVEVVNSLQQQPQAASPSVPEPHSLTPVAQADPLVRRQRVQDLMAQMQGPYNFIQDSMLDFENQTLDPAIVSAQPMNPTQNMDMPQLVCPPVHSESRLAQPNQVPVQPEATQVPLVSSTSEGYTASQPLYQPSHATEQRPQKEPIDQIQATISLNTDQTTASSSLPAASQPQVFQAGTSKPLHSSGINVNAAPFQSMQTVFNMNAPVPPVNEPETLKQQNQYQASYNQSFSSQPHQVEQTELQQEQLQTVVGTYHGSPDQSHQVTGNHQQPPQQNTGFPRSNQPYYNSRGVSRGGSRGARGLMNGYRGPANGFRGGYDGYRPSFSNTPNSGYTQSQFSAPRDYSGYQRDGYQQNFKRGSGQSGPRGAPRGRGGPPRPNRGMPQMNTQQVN
- PROTOCOL: cell-based or functional assay
REPORTED METRIC: ADCC cytotoxic activity (51Cr release) on MDA-MB-361

Ask: Would you mind telling me what ADCC cytotoxic activity (51Cr release) on MDA-MB-361 value was observed for humanized antibody #8 (antibody, V domains shown) VH: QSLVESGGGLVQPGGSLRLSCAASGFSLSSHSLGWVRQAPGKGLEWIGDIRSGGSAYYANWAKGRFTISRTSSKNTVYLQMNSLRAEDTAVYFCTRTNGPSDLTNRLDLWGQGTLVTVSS VL: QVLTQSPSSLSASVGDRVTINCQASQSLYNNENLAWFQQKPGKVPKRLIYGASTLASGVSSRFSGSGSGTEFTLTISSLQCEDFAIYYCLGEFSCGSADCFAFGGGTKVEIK ?
Result: ≥ 40%
